Tested on: S cerevisiae
Can you tell me MIC for the items I'm about to list?

# MIC lookup, item COc1cc(Cc2cnc(N)nc2N)cc(OC)c1OC [Trimethoprim, reference compound]
> 64 mg/L

What value of measured MIC is listed for O=C1CN(/N=C/c2ccc([N+](=O)[O-])o2)C(=O)N1 [Nitrofurantoin, reference compound] ?
> 64 mg/L

Please give the measured MIC for this molecule: CNS(=O)(=O)c1nnc(-c2ccc([N+](=O)[O-])o2)n1C
64 mg/L

GET /values?readout=MIC&item= Cn1c(SCCCO)nnc1-c1ccc([N+](=O)[O-])o1
> 64 mg/L

====

Test system: S pneumoniae
test-name: Microdilution antimicrobial susceptibility test (MIC)
Assay type: cell-based
condition-context: broth microdilution, 18-24 h, CO2-enriched atmosphere, MIC = 90% inhibition of growth
Could you mark each record criterion met if its MIC S pneumoniae MIC6 falls strictly under 8 µg/mL, and criterion not met if it equals or exceeds it?

Hi there! Is MIC S pneumoniae MIC6 for C=CCn1c(S)nnc1-c1ccc([N+](=O)[O-])o1 below 8 µg/mL, do you know?
criterion not met

Input O=[N+]([O-])c1ccc(-c2nnc(S)n2CCCN2CCOCC2)o1 ; condition: MIC S pneumoniae MIC6 strictly below 8 µg/mL. Does it hold?
criterion not met

Just wondering, is MIC S pneumoniae MIC6 of O=[N+]([O-])c1ccc(-c2nnc(S(=O)(=O)O)n2Cc2ccccc2)o1 below 8 µg/mL?
criterion not met

Field: below-cutoff. Rule: recorded MIC S pneumoniae MIC6 strictly less than 8 µg/mL. Subject: O=[N+]([O-])c1ccc(-c2nnc(S(=O)(=O)O)n2-c2ccc(Cl)cc2)o1
criterion not met

Determine if Cn1c(SCC#N)nnc1-c1ccc([N+](=O)[O-])o1 shows MIC S pneumoniae MIC6 strictly lower than 8 µg/mL.
criterion not met

In the record for O=[N+]([O-])c1ccc(-c2nnc(S(=O)(=O)O)n2-c2ccccc2)o1 , is MIC S pneumoniae MIC6 less than 8 µg/mL?
criterion not met

Hello, is MIC S pneumoniae MIC6 of the following compound strictly smaller than 8 µg/mL? O=[N+]([O-])c1ccc(-c2nnc(S)n2-c2ccc(Br)cc2)o1
criterion met

Confirm or reject: MIC S pneumoniae MIC6 of O=[N+]([O-])c1ccc(-c2nnc(S)n2-c2ccc(Oc3ccccc3)cc2)o1 lies strictly below 8 µg/mL
criterion met

Please determine if CCCCn1c(S)nnc1-c1ccc([N+](=O)[O-])o1 is below 8 µg/mL in terms of MIC S pneumoniae MIC6.
criterion not met

Take the compound O=[N+]([O-])c1ccc(-c2nnc(S)n2-c2ccc(Br)c(Cl)c2)o1 and say whether its MIC S pneumoniae MIC6 is less than 8 µg/mL.
criterion met

Quick check: MIC S pneumoniae MIC6 of Cn1c(SCc2ccncc2)nnc1-c1ccc([N+](=O)[O-])o1 under 8 µg/mL?
criterion not met

Regarding O=[N+]([O-])c1ccc(-c2nnc(S(=O)(=O)O)n2C2CCCCC2)o1 , kindly confirm whether its MIC S pneumoniae MIC6 is beneath 8 µg/mL.
criterion not met

Please indicate whether the reported MIC S pneumoniae MIC6 of O=[N+]([O-])c1ccc(-c2nnc(S)n2-c2cccc(Cl)c2)o1 is strictly below 8 µg/mL.
criterion met

====

System: Bacteroides fragilis
test-name: Antimicrobial agar dilution test of anaerobic bacteria (MIC)
Format: cell-based
condition-context: 48 h, second B. fragilis column
property: MIC Bacteroides fragilis

Need MIC Bacteroides fragilis, item C[C@@H](O)[C@H]1C(=O)N2C(C(=O)O)=C(SCCN=CN)C[C@H]12
< 0.125 µg/mL

Requested field: MIC Bacteroides fragilis. Item: Cn1c(S)nnc1-c1ccc([N+](=O)[O-])o1
< 0.125 µg/mL

If you can, please state the reported MIC Bacteroides fragilis value of O=C1CN(/N=C/c2ccc([N+](=O)[O-])o2)C(=O)N1 [Nitrofurantoin, reference compound] .
2 µg/mL

Quick one: MIC Bacteroides fragilis for CCC[C@@H]1C[C@@H](C(=O)N[C@@H]([C@H]2O[C@H](SC)[C@H](O)[C@@H](O)[C@H]2O)[C@H](C)Cl)N(C)C1 ?
1 µg/mL

Reported MIC Bacteroides fragilis for CC[C@H]1OC(=O)[C@H](C)[C@@H](O[C@H]2C[C@@](C)(OC)[C@@H](O)[C@H](C)O2)[C@H](C)[C@@H](O[C@@H]2O[C@H](C)C[C@H](N(C)C)[C@H]2O)[C@](C)(O)C[C@@H](C)CN(C)[C@H](C)[C@@H](O)[C@]1(C)O : what is it?
4 µg/mL

Fill in: MIC Bacteroides fragilis of CCN1CCN(C(=O)N[C@@H](C(=O)N[C@@H]2C(=O)N3[C@@H]2SC(C)(C)[C@@H]3C(=O)O)c2ccccc2)C(=O)C1=O is ___
16 µg/mL

// returns reported MIC Bacteroides fragilis for input O=C(N[C@H](CO)[C@H](O)c1ccc([N+](=O)[O-])cc1)C(Cl)Cl
4 µg/mL
